target: Bcl-2-like protein 1 (Homo sapiens); test: Bcl-XL binding to Bim peptide disruption – biochemical, multiplexed, bead flow cytometry, human Bcl-XL, dose response (AID 1322); conditions: Bead-based flow cytometry, MCF; further: test concentration not given here
Calls of active or inactive are those of the source. How the calls were made is not given here.
measure: inhibition

Here's what some known entries look like.
1) Cc1ccc2c(c1)C1CN(C)CCC1N2C(=O)Nc1cccc(Cl)c1 (configuration not stated); inactive
2) COc1ccc(NC(=O)c2cc(-c3ccc(C)o3)nc3ccccc23)cc1OC; inactive
3) O=C(C1=C(Nc2ccccc2)c2ccccc2S(=O)(=O)N1)c1ccccc1; inactive
4) CC1(C(=O)N(CC(=O)NC2CCCC2)Cc2ccco2)CC(=O)N=C2C=CC=CN21 (configuration not stated); inactive
5) O=C(Oc1ccc(-c2cnc3ccccc3n2)cc1)c1cccc([N+](=O)[O-])c1; inactive
6) CCNC(=S)Nc1cc(OCC)c(NC(=O)c2cccs2)cc1OCC; inactive
7) CC(C)(C)C1CCC(=NNC(=O)c2cc3c(s2)CCCC3)CC1 (configuration not stated); inactive
8) COc1ccc(OC)c(-n2c(-c3ccc(C)cc3)n[nH]c2=S)c1; inactive

May I ask what inhibition has been recorded for CC1Cc2ccccc2N1C(=O)c1ccc(N2CCCC2)c([N+](=O)[O-])c1 (configuration not stated) ?
inactive
